Tested on: OVCAR-5 complex spheroids, viability
Assay: Anticancer human tumor OVCAR-5 cell line growth inhibition;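 also: spheroids exposed to agents for seven days; 100% = DMSO vehicle control wells viability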
Conditions: second compound 1 µM; first compound 1 µM; stronger effect = lower value
Entries whose viability, T/C is below 50% take yes (1); entries at or above 50% take no (0).

molecule | cat
Nc1ncn(C2CC(O)C(CO)O2)c(=O)n1 (stereo not given) + NC1CC1c1ccc(-c2cccc(O)c2)cc1 | no (0)
O=C(c1cc(Cc2n[nH]c(=O)c3ccccc23)ccc1F)N1CCN(C(=O)C2CC2)CC1 + NC1CC1c1ccc(-c2cccc(O)c2)cc1 | no (0)
CC1COCCN1c1cc(-c2ccnn2C)c2ccnc(-c3ccn[nH]3)c2n1 (stereo not given) + NC1CCC(NC2CC2c2ccccc2)CC1 | yes (1)

Please find the next molecule below.
Determine if CC1COCCN1c1cc(-c2ccnn2C)c2ccnc(-c3ccn[nH]3)c2n1 (stereo not given) + NC1CC1c1ccc(-c2cccc(O)c2)cc1 shows viability, T/C strictly lower than 50%. yes (1)
